# target_system: BTK (Homo sapiens, UniProt Q06187)
# Sequence (Q06187 whole entry): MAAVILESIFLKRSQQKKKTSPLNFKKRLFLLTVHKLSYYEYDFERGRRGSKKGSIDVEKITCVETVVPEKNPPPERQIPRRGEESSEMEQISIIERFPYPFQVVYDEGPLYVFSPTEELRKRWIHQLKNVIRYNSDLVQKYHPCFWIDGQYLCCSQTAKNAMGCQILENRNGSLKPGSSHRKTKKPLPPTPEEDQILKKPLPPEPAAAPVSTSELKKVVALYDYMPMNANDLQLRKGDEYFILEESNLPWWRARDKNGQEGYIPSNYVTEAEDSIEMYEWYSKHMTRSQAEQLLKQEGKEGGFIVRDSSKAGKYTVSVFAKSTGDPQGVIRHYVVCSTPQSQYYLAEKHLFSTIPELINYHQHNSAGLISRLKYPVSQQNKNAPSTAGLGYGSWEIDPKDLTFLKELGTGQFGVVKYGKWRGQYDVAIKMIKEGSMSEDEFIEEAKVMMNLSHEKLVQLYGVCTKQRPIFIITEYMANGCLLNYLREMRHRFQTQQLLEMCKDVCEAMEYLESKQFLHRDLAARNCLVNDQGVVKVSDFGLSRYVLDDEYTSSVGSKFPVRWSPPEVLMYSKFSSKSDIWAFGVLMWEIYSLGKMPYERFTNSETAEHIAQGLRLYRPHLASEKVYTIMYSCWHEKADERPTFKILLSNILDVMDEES
# procedure_summary: In vitro BTK kinase assay (PhosphoSens)
# Assay type: biochemical
# Set-up: purchased SignalChem B10-10H-10
# experimental_context: AssayQuant BTK assay kit; 2.5 nM BTK, 1 mM ATP; duplicates; read-out: BTK inhibition IC50
pIC50: −log10 of the molar value.
Output Fulfilled for pIC50 not less than 8; output Not fulfilled otherwise.

- CN(CCCNC(=O)CNc1cccc2c1C(=O)N(C1CCC(=O)NC1=O)C2=O)C(C)(C)C=C(C#N)C(=O)N1CCC[C@@H](n2nc(-c3ccc(Oc4ccccc4)cc3)c3c(N)ncnc32)C1 (some centres unmarked) [RC-1]: Fulfilled
- CN(CC=CC(=O)N1CCCC(n2nc(-c3ccc(Oc4ccccc4)cc3)c3c(N)ncnc32)C1)CCCNC(=O)CNc1cccc2c1C(=O)N(C1CCC(=O)NC1=O)C2=O (centres unmarked) [IRC-1]: Fulfilled
- CN(CCCNC(=O)CNc1cccc2c1C(=O)N(C1CCC(=O)NC1=O)C2=O)CCCC(=O)N1CCCC(n2nc(-c3ccc(Oc4ccccc4)cc3)c3c(N)ncnc32)C1 (centres unmarked) [RNC-1]: Not fulfilled

Given CC(C)(C)C=C(C#N)C(=O)N1CCCC(n2nc(-c3ccc(Oc4ccccc4)cc3)c3c(N)ncnc32)C1 (centres unmarked) [RC-Ctrl] , state whether its pIC50 is at least 8.
Fulfilled

###

# target_system: BTK-NanoLuc fusion (Homo sapiens, UniProt Q06187)
# Construct: host or cells: HEK 293T/17
# Sequence (Q06187 whole entry, the tested form may be a part): as the sequence (Q06187 whole entry) above
# procedure_summary: NanoBRET BTK in-cell target engagement assay
# Assay type: cell-based
# experimental_context: Kd (BTK)/IC50,TE (BTK)
parameter: K′P,D (relative intracellular accumulation coefficient)

• CN(CCCNC(=O)CNc1cccc2c1C(=O)N(C1CCC(=O)NC1=O)C2=O)C(C)(C)CC(C#N)C(=O)N1CCC[C@@H](n2nc(-c3ccc(Oc4ccccc4)cc3)c3c(N)ncnc32)C1 (stereo partly drawn) = 3.1 × 10^−2
• CC(C)(C)C=C(C#N)C(=O)N1CCCC(n2nc(-c3ccc(Oc4ccccc4)cc3)c3c(N)ncnc32)C1 (stereo not drawn) = 1.5 × 10^−1
• CN(CCCNC(=O)CNc1cccc2c1C(=O)N(C1CCC(=O)NC1=O)C2=O)C(C)(C)C=C(C#N)C(=O)N1CCC[C@@H](n2nc(-c3ccc(Oc4ccccc4)cc3)c3c(N)ncnc32)C1 (stereo partly drawn) = 1.5 × 10^−1
• CN(CCCNC(=O)CNc1cccc2c1C(=O)N(C1CCC(=O)NC1=O)C2=O)C(C)(C)/C=C/C(=O)N1CCC[C@@H](n2nc(-c3ccc(Oc4ccccc4)cc3)c3c(N)ncnc32)C1 (stereo partly drawn) = 2.9 × 10^−2
• CN(CCCNC(=O)CNc1cccc2c1C(=O)N(C1CCC(=O)NC1=O)C2=O)CCCC(=O)N1CCCC(n2nc(-c3ccc(Oc4ccccc4)cc3)c3c(N)ncnc32)C1 (stereo not drawn) = 3.7 × 10^−3

Would you kindly look at the next entry?
Supply K′P,D (relative intracellular accumulation coefficient) value. Item: CN(CC=CC(=O)N1CCCC(n2nc(-c3ccc(Oc4ccccc4)cc3)c3c(N)ncnc32)C1)CCCNC(=O)CNc1cccc2c1C(=O)N(C1CCC(=O)NC1=O)C2=O (stereo not drawn)
2.3 × 10^−2

###

activity at 12.8 pM values, listed per item
# target_system: UniProt:Q06187
# procedure_summary: In vitro BTK kinase assay (PhosphoSens)
# Assay type: biochemical
# Set-up: purchased SignalChem B10-10H-10
# experimental_context: Supplementary Figure 5; drug concentration 12.8 pM; replicates; read-out: Inhibition(%)
Your answer should be a plain number; it is taken to be in %.

Here's what some known entries look like.
- CN1C(=O)CCC(N2C(=O)c3cccc(NCC(=O)NCCCN(C)C(C)(C)C=C(C#N)C(=O)N4CCCC(n5nc(-c6ccc(Oc7ccccc7)cc6)c6c(N)ncnc65)C4)c3C2=O)C1=O (stereo not drawn) [RC-1-Me]: 101
- CCC(=O)N1CCCC(n2nc(-c3ccc(Oc4ccccc4)cc3)c3c(N)ncnc32)C1 (stereo not drawn) [RNC-Ctrl]: 94.1
- CC(C)(C)C=C(C#N)C(=O)N1CCCC(n2nc(-c3ccc(Oc4ccccc4)cc3)c3c(N)ncnc32)C1 (stereo not drawn) [RC-Ctrl]: 105

Supply activity at 12.8 pM value. Item: CN(CCCNC(=O)CNc1cccc2c1C(=O)N(C1CCC(=O)NC1=O)C2=O)CCCC(=O)N1CCCC(n2nc(-c3ccc(Oc4ccccc4)cc3)c3c(N)ncnc32)C1 (stereo not drawn) [RNC-1]
93

Supply activity at 12.8 pM value. Item: CN(CCCNC(=O)CNc1cccc2c1C(=O)N(C1CCC(=O)NC1=O)C2=O)C(C)(C)C=C(C#N)C(=O)N1CCC[C@@H](n2nc(-c3ccc(Oc4ccccc4)cc3)c3c(N)ncnc32)C1 (stereo partly drawn) [RC-1]
93.2

Supply activity at 12.8 pM value. Item: CN(CC=CC(=O)N1CCCC(n2nc(-c3ccc(Oc4ccccc4)cc3)c3c(N)ncnc32)C1)CCCNC(=O)CNc1cccc2c1C(=O)N(C1CCC(=O)NC1=O)C2=O (stereo not drawn) [IRC-1]
77.7
